target: T1, CD40 expressed on Ramos [ATCC] cells (UniProt P25942 21-277, limits assumed); assay: flow cytometry (FACS) on Ramos cells expressing CD40, R-PE anti-human antibody
T1 construct: whole, on cells; Target of all flow cytometry and CD95 assays; endogenous CD40 on the Ramos cell line
T1 sequence (P25942 21-277 limits assumed): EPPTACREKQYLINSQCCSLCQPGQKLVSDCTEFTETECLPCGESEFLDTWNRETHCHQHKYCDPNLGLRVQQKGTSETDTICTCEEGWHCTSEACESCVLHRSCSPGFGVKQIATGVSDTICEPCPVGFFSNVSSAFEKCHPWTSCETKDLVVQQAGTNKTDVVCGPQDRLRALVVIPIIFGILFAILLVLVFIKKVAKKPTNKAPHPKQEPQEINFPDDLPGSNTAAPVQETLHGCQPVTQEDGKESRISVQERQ

Binder	binding result
4D11-G3[I422V] (antibody, V domains shown, One-amino acid variant of 4D11-G3; also called IgG3[I422V]; N5KG3-1422V; not shown: human IgG3 heavy chain constant region, from vector N5KG3) VH: QLQLQESGPGLLKPSETLSLTCTVSGGSISSPGYYGGWIRQPPGKGLEWIGSIYKSGSTYHNPSLKSRVTISVDTSKNQFSLKLSSVTAADTAVYYCTRPVVRYFGWFDPWGQGTLVTVSS VL: AIQLTQSPSSLSASVGDRVTITCRASQGISSALAWYQQKPGKAPKLLIYDASNLESGVPSRFSGSGSGTDFTLTISSLQPEDFATYYCQQFNSYPTFGQGTKVEIK	binds
4D11-G3[M397V] (antibody, V domains shown, One-amino acid variant of 4D11-G3, made on N5KG3-4D11; also called N5KG3-M397V; 4D11-G[M397V]; not shown: human IgG3 heavy chain constant region, from vector N5KG3-4D11) VH: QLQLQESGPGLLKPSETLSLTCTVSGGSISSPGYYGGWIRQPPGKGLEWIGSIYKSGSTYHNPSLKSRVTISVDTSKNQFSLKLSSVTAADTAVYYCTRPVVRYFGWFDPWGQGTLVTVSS VL: AIQLTQSPSSLSASVGDRVTITCRASQGISSALAWYQQKPGKAPKLLIYDASNLESGVPSRFSGSGSGTDFTLTISSLQPEDFATYYCQQFNSYPTFGQGTKVEIK	binds
4D11-G[3331] (antibody, V domains shown, also called IgG[3/3/3/1]; N5KG3331; not shown: human IgG3 heavy chain constant region, CH1, hinge and CH2 domains (EU 118-340), from vector N5KG3; human IgG1 heavy chain constant region, CH3 domain (EU 341-446), from vector N5KG1) VH: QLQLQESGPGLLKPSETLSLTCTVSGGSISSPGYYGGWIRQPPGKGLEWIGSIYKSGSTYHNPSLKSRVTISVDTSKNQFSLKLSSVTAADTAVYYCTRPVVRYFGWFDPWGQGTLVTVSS VL: AIQLTQSPSSLSASVGDRVTITCRASQGISSALAWYQQKPGKAPKLLIYDASNLESGVPSRFSGSGSGTDFTLTISSLQPEDFATYYCQQFNSYPTFGQGTKVEIK	binds
